Target: human GPR119 (hGPR119) (Homo sapiens, UniProt Q8TDV5)
Construct: expressed in transfected cells
Sequence (Q8TDV5 whole entry): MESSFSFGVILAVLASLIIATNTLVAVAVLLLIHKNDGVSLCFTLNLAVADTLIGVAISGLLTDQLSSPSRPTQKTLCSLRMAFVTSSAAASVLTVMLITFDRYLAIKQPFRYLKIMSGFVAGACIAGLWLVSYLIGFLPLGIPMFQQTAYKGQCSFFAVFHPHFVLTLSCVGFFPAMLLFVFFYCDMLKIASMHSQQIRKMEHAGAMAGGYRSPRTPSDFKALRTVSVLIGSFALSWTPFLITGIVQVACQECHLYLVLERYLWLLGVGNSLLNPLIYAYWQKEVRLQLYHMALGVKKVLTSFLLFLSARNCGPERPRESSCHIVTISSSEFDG
Assay: cAMP accumulation assay (cAMP Gs dynamic HTRF kit)
Format: cell-based
Settings: 1 h; CHO-K1 cells stably expressing hGPR119; % activity normalized to Max/Min controls; 4-parameter fit
Listing: Emax of selected molecules

Known results for molecules:
{"MOLECULE": "O=C(CCC1CN(C(=O)Cc2c(F)cc(OCCCC3CCN(c4ncc(Cl)cn4)CC3)cc2F)C1)NCC(O)(CO)CO", "OBSERVED_PROPERTY": "Emax", "ASSAY_VALUE": "100 to 130%"}
{"MOLECULE": "CCOc1cnc(N2CCC(CCCOc3cc(F)c(CC(=O)N4CC[C@@H](CNC[C@H](O)[C@@H](O)[C@H](O)[C@H](O)CO)C4)c(F)c3)CC2)nc1", "OBSERVED_PROPERTY": "Emax", "ASSAY_VALUE": "100 to 130%"}
{"MOLECULE": "O=C(Cc1ccc(OCCCC2CCN(c3ncc(Cl)cn3)CC2)cc1F)N1CC(CCNCC(O)(CO)CO)C1", "OBSERVED_PROPERTY": "Emax", "ASSAY_VALUE": "≥ 130%"}
{"MOLECULE": "O=C(Cc1ccc(OCCCC2CCN(c3ncc(Cl)cn3)CC2)cc1F)N1CC(CN2C[C@@H](O)[C@@H](O)[C@@H](O)C2)C1", "OBSERVED_PROPERTY": "Emax", "ASSAY_VALUE": "100 to 130%"}
{"MOLECULE": "O=C(Cc1ccc(COCC2CC23CCN(c2ncc(Cl)cn2)CC3)cc1F)N1CC(CNC[C@H](O)[C@@H](O)[C@H](O)[C@H](O)CO)C1 (some centres unmarked)", "OBSERVED_PROPERTY": "Emax", "ASSAY_VALUE": "50 to 100%"}
{"MOLECULE": "CCCc1cnc(N2CCC(CCCOc3cc(F)c(CC(=O)NC(CO)(CO)CO)c(F)c3)CC2)nc1", "OBSERVED_PROPERTY": "Emax", "ASSAY_VALUE": "100 to 130%"}

Give recorded Emax. O=C(Cc1c(F)cc(OCCCC2CCN(c3ncc(Cl)cn3)CC2)cc1F)N1CC[C@@H](CNCC(O)(CO)CO)C1
100 to 130%

Tell me measured Emax for O=C(Cc1ccc(OCCCC2CCN(c3ncc(Cl)cn3)CC2)cc1F)N1CC[C@H](CNC[C@H](O)[C@H](O)[C@H](O)CO)C1 please.
100 to 130%
